# System: CLL samples isolated from patients
# experiment: Ex vivo CLL patient samples, antileukemic activity
# Assay type: cell-based, human
# condition_notes: Homo sapiens, CLL sample BM-306, TP53
measured_parameter: IC50 (µM)
Kindly answer with a numeric value in µM, unit omitted.

Can you share its IC50? I mean this compound: Cn1c(CCCC(=O)O)nc2cc(N(CCCl)CCCl)ccc21 [Bendamustine]
6.65

====

# Test system: CLL samples isolated from patients
# experiment: Ex vivo CLL patient samples, antileukemic activity
# Format: cell-based, human
# condition_notes: Homo sapiens, CLL sample BM-311, NOTCH1, ATM
measured_parameter: IC50
Answer shape: numeric part, then the unit.

Can you share its IC50? I mean this compound: Cn1c(CCCC(=O)O)nc2cc(N(CCCl)CCCl)ccc21
32.2 µM

Sourced from patent US20260232681A1
